B1: Chromodomain-helicase-DNA-binding protein 5, residues 411 to 463; numbered along this chain, Q8TDI0 (parent)
chain: EEDDHMEFCRVCKDGGELLCCDACPSSYHLHCLNPPLPEIPNGEWLCPRCTCP

variants of: B1; experiment: abundance fitness (aPCA) (normalised: wild type 0, dead -1); higher = more abundant; growth selection in yeast, the domain comes from the species named; settings: Homo sapiens
Can you tell me abundance fitness for the items I'm about to list?
// return just the number, without any unit appended

Consider the variant shown here: E44D What is its recorded abundance fitness? 0.051

Consider the variant shown here: P25Y What is its recorded abundance fitness? 0.023

Consider the variant shown here: E39F What is its recorded abundance fitness? -0.235

Consider the variant shown here: I40R What is its recorded abundance fitness? -0.121

Consider the variant shown here: I40Y What is its recorded abundance fitness? -0.059

Consider the variant shown here: E44P What is its recorded abundance fitness? -0.071

Consider the variant shown here: L30K What is its recorded abundance fitness? -0.043

Consider the variant shown here: L33I What is its recorded abundance fitness? 0.252

Consider the variant shown here: R49P What is its recorded abundance fitness? -0.106

Consider the variant shown here: I40P What is its recorded abundance fitness? 0.052

Consider the variant shown here: P35W What is its recorded abundance fitness? -0.404

Consider the variant shown here: E17T What is its recorded abundance fitness? 0.03

Consider the variant shown here: H29K What is its recorded abundance fitness? -1.06

Consider the variant shown here: L18D What is its recorded abundance fitness? -0.972

Consider the variant shown here: L18F What is its recorded abundance fitness? -0.969

Consider the variant shown here: P35Y What is its recorded abundance fitness? -0.476

Consider the variant shown here: E39D What is its recorded abundance fitness? -0.203

Consider the variant shown here: S26H What is its recorded abundance fitness? -0.008

Consider the variant shown here: L30E What is its recorded abundance fitness? -0.142

Consider the variant shown here: A23Y What is its recorded abundance fitness? 0.193

Consider the variant shown here: T51C What is its recorded abundance fitness? 0.086

Consider the variant shown here: I40T What is its recorded abundance fitness? 0.113
